Molecular target: human TLR8 (Homo sapiens)
Sequence (Q9NR97 27-1041): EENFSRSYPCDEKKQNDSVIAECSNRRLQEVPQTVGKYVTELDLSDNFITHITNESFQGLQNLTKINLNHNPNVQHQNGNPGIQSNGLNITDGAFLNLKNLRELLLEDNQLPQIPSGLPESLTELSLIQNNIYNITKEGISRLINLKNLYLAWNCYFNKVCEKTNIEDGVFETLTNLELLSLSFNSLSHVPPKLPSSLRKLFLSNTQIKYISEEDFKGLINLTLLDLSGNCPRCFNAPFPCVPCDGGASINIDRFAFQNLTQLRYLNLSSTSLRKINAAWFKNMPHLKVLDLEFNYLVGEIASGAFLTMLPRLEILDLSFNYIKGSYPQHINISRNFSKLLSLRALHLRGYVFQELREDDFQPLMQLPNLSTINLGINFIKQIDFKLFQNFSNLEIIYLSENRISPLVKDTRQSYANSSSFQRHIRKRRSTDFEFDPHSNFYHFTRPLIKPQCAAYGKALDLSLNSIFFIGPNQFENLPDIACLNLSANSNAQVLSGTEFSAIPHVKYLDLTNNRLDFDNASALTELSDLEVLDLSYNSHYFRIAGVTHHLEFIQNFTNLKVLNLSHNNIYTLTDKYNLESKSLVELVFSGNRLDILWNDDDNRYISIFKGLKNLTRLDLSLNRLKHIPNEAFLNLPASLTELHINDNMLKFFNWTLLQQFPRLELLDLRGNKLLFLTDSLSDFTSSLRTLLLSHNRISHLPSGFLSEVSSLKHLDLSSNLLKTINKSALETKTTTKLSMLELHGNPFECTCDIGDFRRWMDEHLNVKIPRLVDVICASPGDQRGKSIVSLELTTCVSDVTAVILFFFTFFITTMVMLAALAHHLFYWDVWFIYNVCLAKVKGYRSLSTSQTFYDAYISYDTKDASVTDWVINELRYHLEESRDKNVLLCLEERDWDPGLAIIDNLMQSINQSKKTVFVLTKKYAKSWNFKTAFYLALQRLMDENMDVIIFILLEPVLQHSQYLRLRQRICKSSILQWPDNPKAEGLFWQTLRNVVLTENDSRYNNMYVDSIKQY
Experiment: TLR8 inhibition reporter assay (HEK-Blue cells, SEAP reporter, R848 stimulation)
Details: HEK-Blue cells overexpressing human TLR8, SEAP reporter, R848 15.9 μM
readout-kind: IC50 (nM)

Look over these answered cases.
Cc1cc(-c2[nH]c3ccc(C4CCC(N(C)C5CC5)CC4)cc3c2C(C)C)cn2ncnc12 (single isomer, unassigned) [Example 9] | 1.8
COCCN1CCCC(c2ccc3[nH]c(-c4cc(OC)c5ncnn5c4)c(C(C)C)c3c2)C1 (single isomer, unassigned) [Example 252] | 1.6
COc1cc(-c2[nH]c3ccc(C4CCC(N(C)C5CC5)CC4)cc3c2C(C)C)cn2ncnc12 (stereo not shown) [Example 13] | 4.8
COc1cc(-c2[nH]c3ccc(C4CN(C)C4)cc3c2C(C)C)cn2ncnc12 [Example 273] | 97

A: Cc1cc(-c2[nH]c3ccc(C4CN(C5COC5)CCO4)cc3c2C(C)C)cc(C)n1 (stereo not shown) [Example 304]
B: COc1cc(-c2[nH]c3ccc(C4CNC(C)(C)CO4)cc3c2C(C)C)cn2ncnc12 (stereo not shown) [Example 369]
C: Cc1c(-c2[nH]c3ccc(C4CCC(NC5COC5)CC4)cc3c2C(C)C)cn(C)c(=O)c1C (stereo not shown) [Example 477]
Hey, quick one: sort these by IC50, low to high? Record the ranking as a list of labels in the requested order.
B, C, A
(B: 0.48 nM, C: 1.8 nM, A: 108 nM)

###

Biological target: human TLR9 (Homo sapiens, UniProt Q9NR96)
Sequence (Q9NR96 26-1032): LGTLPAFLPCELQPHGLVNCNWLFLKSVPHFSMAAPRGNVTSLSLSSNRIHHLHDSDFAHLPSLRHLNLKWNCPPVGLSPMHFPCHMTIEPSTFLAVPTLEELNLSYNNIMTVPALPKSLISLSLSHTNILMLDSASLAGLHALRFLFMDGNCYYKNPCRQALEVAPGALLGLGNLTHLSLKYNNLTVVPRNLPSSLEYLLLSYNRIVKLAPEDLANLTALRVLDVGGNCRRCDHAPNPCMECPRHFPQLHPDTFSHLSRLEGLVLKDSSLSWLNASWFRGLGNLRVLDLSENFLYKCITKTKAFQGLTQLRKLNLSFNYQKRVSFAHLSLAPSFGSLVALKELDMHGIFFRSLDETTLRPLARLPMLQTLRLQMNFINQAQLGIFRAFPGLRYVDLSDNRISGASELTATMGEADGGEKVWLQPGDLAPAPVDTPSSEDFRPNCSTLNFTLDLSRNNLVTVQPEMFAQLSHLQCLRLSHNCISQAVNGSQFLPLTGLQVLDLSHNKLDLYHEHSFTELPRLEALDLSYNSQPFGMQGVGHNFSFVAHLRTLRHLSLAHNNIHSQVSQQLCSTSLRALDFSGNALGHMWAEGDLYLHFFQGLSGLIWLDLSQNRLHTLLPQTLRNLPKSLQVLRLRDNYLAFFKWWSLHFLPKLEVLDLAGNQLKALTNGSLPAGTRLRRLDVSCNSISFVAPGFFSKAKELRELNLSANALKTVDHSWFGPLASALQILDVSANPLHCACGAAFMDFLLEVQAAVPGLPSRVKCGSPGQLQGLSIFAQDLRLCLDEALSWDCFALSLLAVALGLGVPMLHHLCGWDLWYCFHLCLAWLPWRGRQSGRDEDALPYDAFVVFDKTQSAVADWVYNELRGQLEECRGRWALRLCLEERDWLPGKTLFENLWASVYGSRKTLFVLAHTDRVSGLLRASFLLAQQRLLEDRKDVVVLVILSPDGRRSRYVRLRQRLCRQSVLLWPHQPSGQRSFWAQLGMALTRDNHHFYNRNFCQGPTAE
Assay: TLR9 inhibition reporter assay (HEK-Blue cells, SEAP reporter, ODN2006 stimulation)
Conditions: HEK-Blue cells overexpressing human TLR9, SEAP reporter, ODN2006 5 nM
pIC50: −log10 of the molar value.
readout-kind: pIC50

Look over these answered cases.
Cc1cc(-c2[nH]c3ccc(C4CCCN(CC(=O)N(C)C)C4)cc3c2C(C)C)cc(C)n1 (stereo not shown) [Example 235] | 6.16
Cc1c(-c2[nH]c3ccc(C4CN(C5CCOCC5)C4)cc3c2C(C)C)cn(C)c(=O)c1C | 4.48
Cc1c(-c2[nH]c3ccc(C4CCC(N(C)C5COC5)CC4)cc3c2C(C)C)cn2cnnc2c1C (stereo not shown) [Example 526] | 5.16

1: COc1cc(-c2[nH]c3ccc(C4CN(C(C)C)CCO4)cc3c2C(C)C)cn2ncnc12 (stereo not shown) [Example 300]
2: Cc1c(-c2[nH]c3ccc(C4CCC(N(C)C)CC4)cc3c2C(C)C)cn(C)c(=O)c1C (stereo not shown) [Example 475]
Could you point out whether the larger pIC50 belongs to 1 or to 2 ? Write down the label attached to your selection.
1
(1: 5.60, 2: 4.98)

###

Target: human TLR7 (Homo sapiens, UniProt Q9NYK1)
Test: TLR7 inhibition reporter assay (HEK-Blue cells, SEAP reporter, gardiquimod stimulation)
Details: HEK-Blue cells overexpressing human TLR7, SEAP reporter, gardiquimod 7.5 μM
readout-kind: IC50 (nM)

Cc1c(-c2[nH]c3ccc(C4CN(CCS(C)(=O)=O)CCO4)cc3c2C(C)C)cn2ncnc2c1C (centres unmarked) [Example 347] | 22

I: COc1cc(-c2[nH]c3ccc(C4CCC(N(C)C(C)C)CC4)cc3c2C(C)C)cn2ncnc12 (single isomer, unassigned) [Example 7]
II: COc1cc(-c2[nH]c3ccc(C4CN(C5COC5)C(C)(C)CO4)cc3c2C(C)C)cn2ncnc12 (centres unmarked) [Example 378]
Kindly compare I with II and tell me which has the lower IC50 figure. Write down the label attached to your selection.
I

###

Biological target: human TLR7 (Homo sapiens, UniProt Q9NYK1)
Assay: TLR7 inhibition reporter assay (HEK-Blue cells, SEAP reporter, gardiquimod stimulation)
Settings: HEK-Blue cells overexpressing human TLR7, SEAP reporter, gardiquimod 7.5 μM
pIC50: −log10 of the molar value.
readout-kind: pIC50

Look over these answered cases.
COc1cc(-c2[nH]c3ccc(C4CCCN(C5COC5)C4)cc3c2C(C)C)cn2ncnc12 (stereo not drawn) [Example 243] | 8.00
Cc1c(-c2[nH]c3ccc(C4CC5CNCC5C4)cc3c2C(C)C)cn2cnnc2c1C (stereo not drawn) [Example 519] | 8.22
COc1cc(-c2[nH]c3ccc(C4CN(C(C)C)C4)cc3c2C(C)C)cn2ncnc12 [Example 272] | 9.08

1: Cc1cc(-c2[nH]c3ccc(C4CCC(N5CCOCC5)CC4)cc3c2C(C)C)cc(C)n1 (stereo not drawn) [Example 497]
2: Cc1c(-c2[nH]c3ccc(C4CC5CN(CC#N)CC5C4)cc3c2C(C)C)cn2cnnc2c1C (stereo not drawn) [Example 558]
3: Cc1c(-c2[nH]c3ccc(CC4CNC4)cc3c2C(C)C)cn2ncnc2c1C [Example 399]
Hey, quick one: sort these by pIC50, low to high? Record the ranking as a list of labels in the requested order.
3, 2, 1
(3: 7.96, 2: 8.22, 1: 9.00)

###

Target: UniProt Q9NR96
Experiment: TLR9 inhibition reporter assay (HEK-Blue cells, SEAP reporter, ODN2006 stimulation)
Details: HEK-Blue cells overexpressing human TLR9, SEAP reporter, ODN2006 5 nM
pIC50: −log10 of the molar value.
readout-kind: pIC50

1: COc1cc(-c2[nH]c3ccc(C4CCC(NCC(=O)NC5COC5)CC4)cc3c2C(C)C)cn2ncnc12 (centres unmarked) [Example 164]
2: Cc1cc(-c2[nH]c3ccc(C4CCCN(Cc5c[nH]c(C)n5)C4)cc3c2C(C)C)cc(C)n1 (centres unmarked) [Example 247]
3: COc1cc(-c2[nH]c3ccc(C4CC(N(C)CCS(C)(=O)=O)C4)cc3c2C(C)C)cn2ncnc12 (centres unmarked) [Example 587]
4: Cc1cc(-c2[nH]c3ccc(C4CCC(N5CCOCC5)CC4)cc3c2C(C)C)cc(C)n1 (centres unmarked) [Example 498]
Quick favor: sort the compounds up above by pIC50, largest first. Record the ranking as a list of labels in the requested order.
2, 4, 1, 3
(2: 6.94, 4: 6.27, 1: 5.72, 3: 4.67)

1: CNC(=O)CN1CCCC(c2ccc3[nH]c(-c4cn5ncnc5c(C)c4C)c(C(C)C)c3c2)C1 (centres unmarked) [Example 231]
2: COc1cc(-c2[nH]c3ccc(C4CN(C(C)C)C4)cc3c2C(C)C)cn2ncnc12 [Example 272]
Could you point out whether the larger pIC50 belongs to 1 or to 2 ? Write down the label attached to your selection.
2

###

Target: human TLR7 (Homo sapiens)
Sequence (Q9NYK1 27-1049): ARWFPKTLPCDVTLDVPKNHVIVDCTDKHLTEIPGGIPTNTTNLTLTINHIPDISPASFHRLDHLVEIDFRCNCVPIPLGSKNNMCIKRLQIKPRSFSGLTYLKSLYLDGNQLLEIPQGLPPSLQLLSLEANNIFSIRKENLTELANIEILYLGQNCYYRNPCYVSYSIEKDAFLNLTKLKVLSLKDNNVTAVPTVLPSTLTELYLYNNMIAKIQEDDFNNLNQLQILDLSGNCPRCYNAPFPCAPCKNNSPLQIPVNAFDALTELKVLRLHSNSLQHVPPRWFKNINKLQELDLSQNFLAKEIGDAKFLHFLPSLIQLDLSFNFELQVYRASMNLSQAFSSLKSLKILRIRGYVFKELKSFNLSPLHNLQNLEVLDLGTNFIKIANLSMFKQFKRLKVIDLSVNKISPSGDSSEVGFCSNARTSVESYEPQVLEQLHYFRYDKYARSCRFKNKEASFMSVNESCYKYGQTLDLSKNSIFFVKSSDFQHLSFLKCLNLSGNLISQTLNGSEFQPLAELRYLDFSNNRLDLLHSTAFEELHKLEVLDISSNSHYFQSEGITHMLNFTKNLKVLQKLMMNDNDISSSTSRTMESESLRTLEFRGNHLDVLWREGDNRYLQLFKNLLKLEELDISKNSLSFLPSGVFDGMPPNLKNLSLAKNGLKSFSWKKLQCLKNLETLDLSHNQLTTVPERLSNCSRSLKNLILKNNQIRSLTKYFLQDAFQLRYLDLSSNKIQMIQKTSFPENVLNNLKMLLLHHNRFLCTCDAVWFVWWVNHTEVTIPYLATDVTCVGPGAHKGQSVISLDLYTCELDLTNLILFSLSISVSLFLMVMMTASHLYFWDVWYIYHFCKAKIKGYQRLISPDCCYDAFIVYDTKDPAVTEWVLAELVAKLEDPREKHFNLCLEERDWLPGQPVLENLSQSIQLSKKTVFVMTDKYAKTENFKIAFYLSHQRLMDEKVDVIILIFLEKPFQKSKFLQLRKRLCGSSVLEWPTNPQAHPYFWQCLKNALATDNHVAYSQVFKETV
Experiment: TLR7 inhibition reporter assay (HEK-Blue cells, SEAP reporter, gardiquimod stimulation)
Conditions: HEK-Blue cells overexpressing human TLR7, SEAP reporter, gardiquimod 7.5 μM
readout-kind: IC50 (nM)

Look over these answered cases.
Cc1cc(-c2[nH]c3ccc(C4CCC(NC(=O)CN(C)C)CC4)cc3c2C(C)C)cc(C)n1 (centres unmarked) [Example 120] | 4
CCc1c(-c2ccc(OC)c(OC)c2)[nH]c2ccc(CC3CCCN3)cc12 (centres unmarked) [Example 419] | 418
COCCN1CC(c2ccc3[nH]c(-c4cc(C)c5ncnn5c4)c(C(C)C)c3c2)OCC1(C)C (centres unmarked) [Example 383] | 9

A: CCN(C)C1CCC(c2ccc3[nH]c(-c4cc(OC)c5ncnn5c4)c(C(C)C)c3c2)CC1 (single isomer, unassigned) [Example 66]
B: Cc1c(-c2[nH]c3ccc(C4CN(CC5(C)COC5)C4)cc3c2C(C)C)cn2cnnc2c1C [Example 536]
Could you point out whether the larger IC50 belongs to A or to B ? Write down the label attached to your selection.
B
(B: 26 nM, A: 0.85 nM)
